Record: pKd reported on calmodulin (Homo sapiens, UniProt P0DP23).
Remember the convention: pKd equals -log10 of concentration in molar.

> print(dat)
   compound.structure.string  result.value
1                     [Mg+2]          4.46

Exam item: Find the measured pKd of [Ca+2] and report it.
Marked response: 5.72

====

molecular target: KcsA-Kv1.3; test: SPR-OBL binding kinetics of small molecules to KcsA-Kv1.3 nanodisc on streptavidin OBL; settings: 25° C., AC response, 40 times diluted nanodisc buffer
MEASURE_NAME: Kd
Report field: quantity (unit follows the number).

Exam item: Find the measured Kd of O=c1ccc2c(OCCCCOc3ccccc3)c3ccoc3cc2o1 [PAP-1] and report it.
Marked response: 65 µM
